System: P12-Ichikawa
Experiment: cell viability relative to DMSO control; higher = less cytotoxic
Conditions: HPLM + 10% dialyzed FBS; 48 h; 0.000781 µM
readout.label: cell viability (%)

{"columns": ["compound.smiles", "unit.abbreviation", "number"],
 "data": [
  ["C[S+](=O)([O-])Oc1ccc2c(NC(N)=O)c(C(=O)c3ccc(Cl)cc3Cl)oc2c1", "%", 113],
  ["CNC[C@H](O)[C@@H](O)[C@H](O)[C@H](O)CO", "%", 114],
  ["O=C(/C=C/c1ccc(/C=C/C(=O)Nc2ccc(C3=NCCN3)cc2)cc1)Nc1ccc(C2=NCCN2)cc1", "%", 98.7],
  ["CNc1nc(-c2ccc3c(N)n[nH]c3c2)cc(N2C[C@@H](C(=O)NC3CCCCC3)CC[C@H]2C)n1", "%", 97.8],
  ["CN1C(=O)c2sccc2N(C)c2nc(Nc3ccc([S+](N)(=O)[O-])cc3)ncc21", "%", 91.5]
]}

----------
Measured cell viability values are reported for all entries that follow.
Tested on: NOMO1
Experiment: cell viability relative to DMSO control; higher = less cytotoxic
Conditions: RPMI 5 mM glucose + 10% FBS; 48 h; 0.19 µM
readout.label: cell viability

{"columns": ["compound", "system", "result"],
 "data": [
  ["Cc1ccc2nc(NCCN)c3ncc(C)n3c2c1", "NOMO1", "98.4%"],
  ["CC1(C)SCCN([S+](=O)([O-])c2ccc(OCC#CCO)cc2)[C@H]1C(=O)NO", "NOMO1", "93%"],
  ["CCC(C)CCCCC(=O)N[C@@H](CCN)C(=O)NC(C(=O)N[C@H](CCN)C(=O)N[C@@H]1CCNC(=O)C([C@@H](C)O)NC(=O)[C@@H](CCN)NC(=O)[C@@H](CCN)NC(=O)[C@@H](CC(C)C)NC(=O)[C@H](Cc2ccccc2)NC(=O)[C@H](CCN)NC1=O)[C@@H](C)O (some centres not stated)", "NOMO1", "120%"],
  ["COc1ccc(CCC(=O)c2c(O)cc(O[C@@H]3O[C@H](CO)[C@@H](O)[C@H](O)[C@H]3O[C@@H]3O[C@@H](C)[C@H](O)[C@@H](O)[C@H]3O)cc2O)cc1O", "NOMO1", "119%"],
  ["C[C@H](CCC(=O)O)[C@H]1CC[C@H]2[C@@H]3[C@H](O)C[C@@H]4C[C@H](O)CC[C@]4(C)[C@H]3CC[C@]12C", "NOMO1", "87.1%"],
  ["CNc1nc(-c2ccc3c(N)n[nH]c3c2)cc(N2C[C@@H](C(=O)NC3CCCCC3)CC[C@H]2C)n1", "NOMO1", "80.3%"],
  ["CC(=O)OC[C@@H]1O[C@H]([C@H](OC(C)=O)[C@@H]1OC(C)=O)N2\\C=C/C(=O)NC2=O", "NOMO1", "121%"]
]}

----------
Test system: SEM cells
Experiment: cell viability relative to DMSO control; higher = less cytotoxic
Details: HPLM + 10% dialyzed FBS; 48 h; 46.1 µM

{"columns": ["compound.smiles", "unit.abbreviation", "cell viability"],
 "data": [
  ["COc1ccc(CCC(=O)c2c(O)cc(O[C@@H]3O[C@H](CO)[C@@H](O)[C@H](O)[C@H]3O[C@@H]3O[C@@H](C)[C@H](O)[C@@H](O)[C@H]3O)cc2O)cc1O", "%", 116],
  ["CNC[C@H](O)[C@@H](O)[C@H](O)[C@H](O)CO", "%", 112],
  ["CC[C@H]1OC(=O)[C@H](C)[C@@H](O[C@H]2C[C@@](C)(OC)[C@@H](O)[C@H](C)O2)[C@H](C)[C@@H](O[C@@H]2O[C@H](C)C[C@H](N(C)C)[C@H]2O)[C@](C)(OC)C[C@@H](C)C(=O)[C@H](C)[C@@H](O)[C@]1(C)O", "%", 87.6],
  ["Cc1ccc([C@@H]2O[C@H](CO)[C@@H](O)[C@H](O)[C@H]2O)cc1Cc1ccc(-c2ccc(F)cc2)s1", "%", 101],
  ["CCOC(=O)N1CCN(/[N+]([O-])=N/Oc2cc(O/N=[N+](\\[O-])N3CCN(C(=O)OCC)CC3)c([N+](=O)[O-])cc2[N+](=O)[O-])CC1", "%", 116],
  ["CCc1ccc(OCc2ccccc2C(=O)Nc2ccc3nc(C)cc(N)c3c2)cc1", "%", 8.33]
]}

----------
Tested on: SEM cells
Assay: cell viability relative to DMSO control; higher = less cytotoxic
Conditions: RPMI 5 mM glucose + 10% dialyzed FBS; 48 h; 0.00702 µM
readout.label: cell viability (%)

{"columns": ["compound", "number"],
 "data": [
  ["C=CC(=O)Nc1cc2c(Nc3ccc(F)c(Cl)c3)ncnc2cc1C#CC(C)(C)N1CCN(C)CC1", 95.8],
  ["CN1CCc2c(c3ccccc3n2Cc2ccc(C(=O)NO)cc2)C1", 67],
  ["O=C(O)c1ccc(O)c2ncc(N3CCOCC3)cc12", 96],
  ["CCc1ccc(OCc2ccccc2C(=O)Nc2ccc3nc(C)cc(N)c3c2)cc1", 91.4],
  ["CCNC(=O)CCC/C=C\\C[C@@H]1[C@@H](/C=C/C(O)CCc2ccccc2)[C@@H](O)C[C@@H]1O (stereo not given in full)", 128]
]}

----------
Test system: NOMO1
Assay: cell viability relative to DMSO control; higher = less cytotoxic
Conditions: HPLM + 10% dialyzed FBS; 48 h; 0.000781 µM
Measured cell viability values are reported for all entries that follow.
readout.label: cell viability (%)

{"columns": ["molecule", "number"],
 "data": [
  ["CC(=O)N(C)C1(c2ccccc2)CCN(CCC[C@]2(c3ccc(Cl)c(Cl)c3)CCCN(C(=O)c3ccccc3)C2)CC1", 116],
  ["CO[C@H]1/C=C/O[C@@]2(C)Oc3c(C)c(O)c4c(c3C2=O)C2=NC3(CCN(CC(C)C)CC3)NC2=C(NC(=O)/C(C)=C/C=C/[C@H](C)[C@H](O)[C@@H](C)[C@@H](O)[C@@H](C)[C@H](OC(C)=O)[C@@H]1C)C4=O", 117],
  ["CN1CCc2c(c3ccccc3n2Cc2ccc(C(=O)NO)cc2)C1", 76],
  ["Oc1ccc(OCc2ccccc2)cc1", 108],
  ["COc1ccccc1[C@H](c1cccc2ccccc12)[C@@](C)(C#N)C(=O)N1CCC(c2cccc(C(F)(F)F)c2)CC1", 96.4],
  ["CCC(C)CCCCC(=O)N[C@@H](CCN)C(=O)NC(C(=O)N[C@H](CCN)C(=O)N[C@@H]1CCNC(=O)C([C@@H](C)O)NC(=O)[C@@H](CCN)NC(=O)[C@@H](CCN)NC(=O)[C@@H](CC(C)C)NC(=O)[C@H](Cc2ccccc2)NC(=O)[C@H](CCN)NC1=O)[C@@H](C)O (some centres undefined)", 118],
  ["COc1cc(C(=O)NC2CCN(C)CC2)ccc1Nc1ncc2c(n1)N(C1CCCC1)CCC(=O)N2C(C)C", 103],
  ["CNC(=O)c1ccc2c(c1)NC(=O)/C2=C(\\Nc1cccc(CN(C)C)c1)c1ccccc1", 85.5],
  ["Cc1cc(Nc2cc(N3CCN(C)CC3)nc(/C=C/c3ccccc3)n2)n[nH]1", 111],
  ["Nc1n[nH]c2nnc(-c3c(-c4ccccc4)nn4ccccc34)cc12", 103],
  ["OC(=O)\\C1=C\\N(C2CC2)C3=CC(=C(F)C=C3C1=O)N4CCNCC4", 108],
  ["COc1cc2c(cc1OC)[C@@H]1Cc3ccc(OC)c(OC)c3CN1CC2", 120],
  ["C=CC(=O)Nc1cccc(Sc2nc(Nc3ccc(N4CCN(C)CC4)cc3)ncc2Cl)c1", 102],
  ["O=C(O)CCCCCC(=O)NN=C1CCCC1", 99.6]
]}

----------
Measured cell viability values are reported for all entries that follow.
Tested on: SEM cells
Test: cell viability relative to DMSO control; higher = less cytotoxic
Details: RPMI 5 mM glucose + 10% FBS; 48 h; 0.569 µM

{"columns": ["compound", "system", "cell viability (%)"],
 "data": [
  ["CN(C)C/C=C/C(=O)Nc1ccc(C(=O)Nc2cccc(Nc3ncc(Cl)c(-c4c[nH]c5ccccc45)n3)c2)cc1", "SEM cells", 5.08],
  ["CO[C@H]1CCC(O[C@H]2C[C@H]([C@]3(C)CC[C@]4(C[C@H](O)[C@@H](C)[C@@H]([C@@H](C)/C=C(\\C)C(=O)[C@H](C)C[C@H](C)C(=O)[O-])O4)O3)O[C@]3(O[C@@H]([C@H]4O[C@@](O)(CO)[C@H](C)C[C@@H]4C)C[C@@H]3C)[C@@H]2C)O[C@@H]1C (stereo partly drawn)", "SEM cells", 98.3],
  ["O=C(O)c1ccc(O)c2ncc(N3CCOCC3)cc12", "SEM cells", 106]
]}
